# Test system: GALAP (Galium)
# ASSAY NAME: Postemergence herbicidal evaluation
# Type: in vivo, Galium aparine
# TEST SETTINGS: postemergence, rate 0.1250 kg/ha
// reported Herbicidal rating GALAP for each item listed
I'd appreciate a reply containing only the number, no unit.

The cases that follow already have their Herbicidal rating GALAP on record.
Cn1c(C(F)(F)F)cc(=O)n(-c2cc(N=C3SCC(=O)N3CC(=O)OCC3CCCCC3)c(Cl)cc2F)c1=O [Compound 123]: 7.0
CCOC(=O)CN1C(=O)C(C(=O)OC(C)(C)C)SC1=Nc1cc(-n2c(=O)cc(C(F)(F)F)n(C)c2=O)c(F)cc1Cl (stereo not drawn) [Compound 167]: 4.0
C=CCN1C(=O)C(CC(=O)NS(=O)(=O)c2ccccc2)SC1=Nc1cc(-n2c(=O)cc(C(F)(F)F)n(C)c2=O)c(F)cc1Cl (stereo not drawn) [Compound 101]: 2.0

What Herbicidal rating GALAP value was documented for this compound, CCOC(=O)CN1C(=O)C(OC)SC1=Nc1cc(-n2c(=O)cc(C(F)(F)F)n(C)c2=O)c(F)cc1Cl (stereo not drawn) [Compound 160] ? 4.0

What value of Herbicidal rating GALAP has been recorded for this entry: Cn1c(C(F)(F)F)cc(=O)n(-c2cc(N=C3SCC(=O)N3C3CCCC3)c(Cl)cc2F)c1=O [Compound 166] 2.0

May I ask what Herbicidal rating GALAP has been recorded for C=CCN1C(=O)C(CC(=O)NS(=O)(=O)CC)SC1=Nc1cc(-n2c(=O)cc(C(F)(F)F)n(C)c2=O)c(F)cc1Cl (stereo not drawn) [Compound 104] ? 2.0

====

Item-by-item account of Preemergence herbicidal rating GALAP
# Test system: GALAP (Galium)
# ASSAY NAME: Preemergence herbicidal evaluation
# Format: in vivo, Galium aparine
# TEST SETTINGS: 0.2500 kg/ha, rated 4-5 weeks after treatment
The response must contain the number and no unit.

Below, 3 compounds whose answers are already recorded.
CCOC(=O)CN1C(=O)C(OC)SC1=Nc1cc(-n2c(=O)cc(C(F)(F)F)n(C)c2=O)c(F)cc1Cl (stereo not shown) [Compound 160]: 7.0
COCCCN1C(=O)CSC1=Nc1cc(-n2c(=O)cc(C(F)(F)F)n(C)c2=O)c(F)cc1Cl [Compound 172]: 9.0
CC(C)N1C(=O)CSC1=Nc1cc(-n2c(=O)cc(C(F)(F)F)n(C)c2=O)c(F)cc1Cl [Compound 164]: 7.0

Note: attention shifts to another entry.
Form field: reported Preemergence herbicidal rating GALAP of CCOC(=O)CN1C(=O)C(C(=O)OC(C)(C)C)SC1=Nc1cc(-n2c(=O)cc(C(F)(F)F)n(C)c2=O)c(F)cc1Cl (stereo not shown) [Compound 167] 6.0

====

# System: ECHCG (Barnyardgrass)
# ASSAY NAME: Preemergence herbicidal evaluation
# Format: in vivo, Echinochloa crus-galli
# TEST SETTINGS: rate 0.1250 kg/ha; rated 4-5 weeks after treatment
List of Preemergence herbicidal rating ECHCG values.
Enter the number alone.

For orientation, consider the following solved cases.
COC(=O)C(Cc1ccc(Cl)cc1)N1C(=O)CSC1=Nc1cc(-n2c(=O)cc(C(F)(F)F)n(C)c2=O)c(F)cc1Cl (racemic): 0.0
Cn1c(C(F)(F)F)cc(=O)n(-c2cc(N=C3SCC(=O)N3CC(=O)OC3CCCC3)c(Cl)cc2F)c1=O: 0.0
Cc1ccccc1CN1C(=O)CSC1=Nc1cc(-n2c(=O)cc(C(F)(F)F)n(C)c2=O)c(F)cc1Cl: 1.0
Cn1c(C(F)(F)F)cc(=O)n(-c2cc(N=C3SCC(=O)N3CC(=O)OCC3CCCCC3)c(Cl)cc2F)c1=O: 1.0
CCOC(=O)CN1C(=O)CS(=O)(=O)C1=Nc1cc(-n2c(=O)cc(C(F)(F)F)n(C)c2=O)c(F)cc1Cl: 0.0
C[C@@H](C(=O)O)N1C(=O)CS/C1=N/c1cc(-n2c(=O)cc(C(F)(F)F)n(C)c2=O)c(F)cc1Cl: 1.0

Let's switch to this molecule now.
Preemergence herbicidal rating ECHCG lookup needed for `C[C@@H](C(=O)OC(C)(C)C)N1C(=O)CSC1=Nc1cc(-n2c(=O)cc(C(F)(F)F)n(C)c2=O)c(F)cc1Cl` , thanks. 0.0

====

Herbicidal rating TRZAWR values by entry
# Test system: TRZAWR (Wheat, Winter, cv Riband)
# ASSAY NAME: Postemergence herbicidal evaluation
# Assay type: in vivo, Triticum aestivum
# TEST SETTINGS: postemergence, rate 0.0313 kg/ha
Enter a number only.

Use the examples below as a reference point.
COc1cc(CN2C(=O)CSC2=Nc2cc(-n3c(=O)cc(C(F)(F)F)n(C)c3=O)c(F)cc2Cl)cc(OC)c1OC: 3.5
Cn1c(C(F)(F)F)cc(=O)n(-c2cc(N=C3SCC(=O)N3CC(=O)OC3CCCC3)c(Cl)cc2F)c1=O: 4.5
CCOC(=O)CN1C(=O)C(C(=O)OC)SC1=Nc1cc(-n2c(=O)cc(C(F)(F)F)n(C)c2=O)c(F)cc1Cl (centres unmarked): 3.0
CN(C)c1ccc(CN2C(=O)CSC2=Nc2cc(-n3c(=O)cc(C(F)(F)F)n(C)c3=O)c(F)cc2Cl)cc1: 3.0
Cc1cc(C)cc(CN2C(=O)CSC2=Nc2cc(-n3c(=O)cc(C(F)(F)F)n(C)c3=O)c(F)cc2Cl)c1: 3.5
Cn1c(C(F)(F)F)cc(=O)n(-c2cc(N=C3SCC(=O)N3Cc3ccc(F)cc3)c(Cl)cc2F)c1=O: 2.5
CC(C)N1C(=O)CSC1=Nc1cc(-n2c(=O)cc(C(F)(F)F)n(C)c2=O)c(F)cc1Cl: 4.5

In the following, a different compound is considered.
What measured Herbicidal rating TRZAWR is associated with CC(C)S(=O)(=O)NC(=O)CC1SC(=Nc2cc(-n3c(=O)cc(C(F)(F)F)n(C)c3=O)c(F)cc2Cl)N(C)C1=O (centres unmarked) on TRZAWR (Wheat, Winter, cv Riband)? 3.5

====

# System: SAGPY (Arrowhead (Pygmaea))
# ASSAY NAME: Postemergence weed control under flooded paddy conditions
# Format: in vivo, Sagittaria pygmaea
# TEST SETTINGS: rate 0.2500 kg/ha, postemergence weeds, 3-4 weeks after treatment
READOUT: Herbicidal rating SAGPY

Example compounds with recorded Herbicidal rating SAGPY:
CCOC(=O)CN1C(=O)C(CC(=O)OC(C)C)SC1=Nc1cc(-n2c(=O)cc(C(F)(F)F)n(C)c2=O)c(F)cc1Cl (stereo not shown): 0.0
CCOC(=O)CN1CC(=O)N(CC(=O)OCC)C1=Nc1cc(-n2c(=O)cc(C(F)(F)F)n(C)c2=O)c(F)cc1Cl: 0.0
CCOC(=O)CN1C(=O)C(Cc2ccccc2OC)SC1=Nc1cc(-n2c(=O)cc(C(F)(F)F)n(C)c2=O)c(F)cc1Cl (stereo not shown): 3.0

Could you now look at the following compound, please?
Report Herbicidal rating SAGPY for CCOC(=O)CN1C(=O)C(CC(=O)OC)S/C1=N/c1cc(-n2c(=O)cc(C(F)(F)F)n(C)c2=O)c(F)cc1Cl (stereo not shown) please. 2.0

====

Measured Preemergence herbicidal rating IPOHE values are reported for all entries that follow.
# Tested on: IPOHE (Morningglory, Ivyleaf)
# ASSAY NAME: Preemergence herbicidal evaluation
# Type: in vivo, Ipomoea hederacea
# TEST SETTINGS: rate 0.0156 kg/ha; rated 4-5 weeks after treatment
# Excerpt: Results of herbicide evaluation are expressed on a rating scale (0-9). The scale is based upon a visual observation of plant stand, vigor, malformation, size, chlorosis and overall plant appearance as compared with a control. […] The compounds evaluated are reported by compound number given in Example 37.
Answer with a bare number; do not write a unit.

COC(=O)COC(=O)CN1C(=O)CSC1=Nc1cc(-n2c(=O)cc(C(F)(F)F)n(C)c2=O)c(F)cc1Cl: 0.0
Cn1c(C(F)(F)F)cc(=O)n(-c2cc(N=C3NC(=O)CS3)c(Cl)cc2F)c1=O: 0.0
CC(C)C[C@@H](C(=O)O)N1C(=O)CSC1=Nc1cc(-n2c(=O)cc(C(F)(F)F)n(C)c2=O)c(F)cc1Cl: 0.0

Can you look up the measured Preemergence herbicidal rating IPOHE of CCOC(=O)CN1C(=O)C(CCO)S/C1=N/c1cc(-n2c(=O)cc(C(F)(F)F)n(C)c2=O)c(F)cc1Cl (stereo not shown) for me? 0.0

====

Reported values of Preemergence herbicidal rating ECHCG for individual entries
# System: ECHCG (Barnyardgrass)
# ASSAY NAME: Preemergence herbicidal evaluation
# Type: in vivo, Echinochloa crus-galli
# TEST SETTINGS: rate 0.2500 kg/ha; rated 4-5 weeks after treatment

CC(C)OC(=O)CN1C(=O)CSC1=Nc1cc(-n2c(=O)cc(C(F)(F)F)n(C)c2=O)c(F)cc1Cl [Compound 110]: 3.0

// switching to the query molecule
Data request, read-out Preemergence herbicidal rating ECHCG, for C[C@H](C(=O)O)N1C(=O)CSC1=Nc1cc(-n2c(=O)cc(C(F)(F)F)n(C)c2=O)c(F)cc1Cl [Compound 70] 1.0

meta.source: patent US20020137929A1
